Measured values drawn from ChEMBL document CHEMBL1159261 for this set.

- System: MCF7
- assay_procedure: Cytotoxicity against human MCF7 cells after 7 days by MTT assay
- Type: functional
- measurement_setup: MCF7, 168 h, read-out: ED50 (the source's name)
With a cut-off of 0.1 µg/mL, any EC50 strictly below it is called criterion met; any EC50 meeting it or above is called criterion not met.

Is the reported EC50 for CCCCCCCCCCCC[C@@H](O)[C@H]1CC[C@H]([C@H](O)CC[C@@H](O)C[C@H](O)CCCCC[C@@H](O)CC2=C[C@H](C)OC2=O)O1 [MURICATOCIN C] strictly below 0.1 µg/mL?
criterion met

Entry to check: COc1cccc2c1C(=O)c1c(O)c3c(c(O)c1C2=O)C[C@@](O)(C(=O)CO)C[C@@H]3O[C@H]1C[C@H](N)[C@H](O)[C@H](C)O1 [DOXORUBICIN]
criterion not met

And then CCCCCCCCCCCC[C@@H](O)[C@H]1CC[C@H]([C@H](O)CC[C@@H]2C[C@@H](CCCCC[C@@H](O)CC3=C[C@H](C)OC3=O)OC(C)(C)O2)O1 , what is it?
criterion met

Would you kindly repeat that for CCCCCCCCCCCC[C@@H](O)[C@H]1CC[C@H]([C@H](O)CCC[C@@H]2OC(C)(C)O[C@@H]2CCCCC[C@@H](O)CC2=C[C@H](C)OC2=O)O1 ?
criterion met

Try CCCCCCCCCCCC[C@@H](O)[C@H]1CC[C@H]([C@H](O)CCC[C@H](O)[C@@H](O)CCCCC[C@@H](O)CC2=C[C@H](C)OC2=O)O1 [ANNOMURICIN C] next.
criterion not met
